Measured on: human TLR8 (Homo sapiens, UniProt Q9NR97)
Sequence (Q9NR97 27-1041): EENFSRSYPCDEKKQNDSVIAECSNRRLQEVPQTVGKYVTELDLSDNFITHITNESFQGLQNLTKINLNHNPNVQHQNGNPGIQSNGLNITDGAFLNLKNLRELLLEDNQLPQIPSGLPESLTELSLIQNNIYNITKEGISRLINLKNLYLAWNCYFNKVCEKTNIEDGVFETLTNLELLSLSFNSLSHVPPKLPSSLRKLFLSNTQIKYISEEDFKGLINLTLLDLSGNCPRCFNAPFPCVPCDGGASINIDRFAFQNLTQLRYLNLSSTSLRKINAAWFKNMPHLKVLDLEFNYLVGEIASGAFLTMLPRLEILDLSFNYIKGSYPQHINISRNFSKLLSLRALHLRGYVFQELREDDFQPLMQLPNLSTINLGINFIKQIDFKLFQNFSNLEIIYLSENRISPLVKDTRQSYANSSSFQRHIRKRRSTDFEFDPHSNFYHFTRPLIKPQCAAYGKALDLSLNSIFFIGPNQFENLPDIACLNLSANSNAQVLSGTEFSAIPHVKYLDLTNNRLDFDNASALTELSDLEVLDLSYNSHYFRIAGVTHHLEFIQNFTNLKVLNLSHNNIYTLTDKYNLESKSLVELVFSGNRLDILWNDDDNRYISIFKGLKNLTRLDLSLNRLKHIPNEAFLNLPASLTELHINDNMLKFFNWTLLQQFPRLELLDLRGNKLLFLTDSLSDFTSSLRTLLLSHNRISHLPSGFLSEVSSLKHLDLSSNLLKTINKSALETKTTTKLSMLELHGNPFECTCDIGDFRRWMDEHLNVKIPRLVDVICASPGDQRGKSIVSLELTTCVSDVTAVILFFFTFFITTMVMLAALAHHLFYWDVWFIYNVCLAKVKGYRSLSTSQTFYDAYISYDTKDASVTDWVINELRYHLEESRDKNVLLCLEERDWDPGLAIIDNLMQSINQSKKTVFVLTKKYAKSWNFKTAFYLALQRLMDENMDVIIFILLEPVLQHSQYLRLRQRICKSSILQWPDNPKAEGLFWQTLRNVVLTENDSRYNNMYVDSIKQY
Test method notes: HEK293-Blue-hTLR-8 cells assay (SEAP reporter, R848 stimulation)
Assay context: HEK293-Blue-hTLR8 cells, R848, 20 hrs; read-out: HEK/hTLR8 IC50
pIC50: −log10 of the molar value.
Metric name: pIC50

Answered cases to consult:
[
  {
    "Molecule": "C[C@H]1CN(c2ccnc3c2cnn3C)Cc2ccc(N3CCNC(CO)C3)cc21 (some centres unmarked)",
    "pIC50": 8.70
  },
  {
    "Molecule": "C[C@H]1CN(c2ccnc3c2cnn3C)Cc2ccc(N3CCNCC3)nc21",
    "pIC50": 8.70
  },
  {
    "Molecule": "Cc1cc(N2Cc3ccc(N4CCC(O)(CN(C)C)CC4)cc3[C@@H](C)C2)c2cnn(C)c2n1",
    "pIC50": 9.00
  },
  {
    "Molecule": "C[C@H]1CN(c2ccnc3c2cnn3C)Cc2ccc(N3CCC(O)(CN(C)C)CC3)cc21",
    "pIC50": 8.70
  }
]

I: Cc1cc(N2Cc3ccc(N4CCNCC4)nc3[C@H](C)C2)c2cnn(C)c2n1
II: Cc1cc(N2Cc3ccc(N4C[C@@H](F)[C@@H](N)C4)nc3[C@@H](C)C2)c2cnn(C)c2n1
III: Cc1cc(N2Cc3ccc(OC4CCNCC4)nc3[C@@H](C)C2)c2cnn(C)c2n1
IV: CO[C@@H]1CN(c2cc3c(cn2)CN(c2cc(C)nc4c2cnn4C)C[C@@H]3C)C[C@H]1N
Thanks in advance: please rank these 4 entries by pIC50, highest to lowest. Submit the labels in the order that the ranking request calls for. I, III, II, IV
(I: 8.70, III: 8.40, II: 8.05, IV: 7.28)

* * *

Measured on: TLR9 (Homo sapiens)
Sequence (Q9NR96 26-1032): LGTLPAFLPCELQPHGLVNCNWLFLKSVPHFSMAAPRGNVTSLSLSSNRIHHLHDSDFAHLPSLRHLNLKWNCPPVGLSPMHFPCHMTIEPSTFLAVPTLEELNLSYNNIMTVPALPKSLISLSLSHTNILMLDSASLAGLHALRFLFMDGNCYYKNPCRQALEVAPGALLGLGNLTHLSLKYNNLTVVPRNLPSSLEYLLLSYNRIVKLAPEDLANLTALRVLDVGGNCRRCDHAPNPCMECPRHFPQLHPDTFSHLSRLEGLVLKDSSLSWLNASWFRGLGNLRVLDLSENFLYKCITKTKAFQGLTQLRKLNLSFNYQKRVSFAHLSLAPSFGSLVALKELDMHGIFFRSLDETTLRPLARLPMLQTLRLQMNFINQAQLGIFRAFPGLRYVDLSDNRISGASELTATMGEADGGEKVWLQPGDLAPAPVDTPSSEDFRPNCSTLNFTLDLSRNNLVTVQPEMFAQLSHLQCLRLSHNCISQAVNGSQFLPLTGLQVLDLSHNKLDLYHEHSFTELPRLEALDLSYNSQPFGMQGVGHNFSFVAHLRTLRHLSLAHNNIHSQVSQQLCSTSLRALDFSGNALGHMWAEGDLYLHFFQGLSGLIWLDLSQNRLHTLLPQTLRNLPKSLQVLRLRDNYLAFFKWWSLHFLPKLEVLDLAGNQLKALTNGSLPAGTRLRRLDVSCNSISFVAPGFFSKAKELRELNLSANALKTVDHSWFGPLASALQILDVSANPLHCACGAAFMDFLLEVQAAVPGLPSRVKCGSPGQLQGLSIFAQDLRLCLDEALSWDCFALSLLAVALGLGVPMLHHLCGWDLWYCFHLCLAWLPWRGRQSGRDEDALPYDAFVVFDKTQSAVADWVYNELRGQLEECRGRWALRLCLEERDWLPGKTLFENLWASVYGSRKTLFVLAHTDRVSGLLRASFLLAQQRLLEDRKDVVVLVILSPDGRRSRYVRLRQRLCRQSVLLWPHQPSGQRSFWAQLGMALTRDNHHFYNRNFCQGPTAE
Test method notes: HEK293-Blue-hTLR-9 cells assay (SEAP reporter, ODN2006 stimulation)
Format: cell-based
Set-up: host or cells: HEK293 (HEK-Blue hTLR9)
Assay context: HEK293-Blue-hTLR9 cells, ODN2006, 20 hrs; read-out: HEK/hTLR9 IC50
Metric name: IC50 (nM)

Examples with their reported IC50 follow.
[
  {
    "Compound": "Cc1cc(N2Cc3cnc(N4CCNC5(CC5)C4)cc3[C@@H](C)C2)c2cnn(C)c2n1 [Example 75]",
    "Metric name": "IC50",
    "Reading": 115
  },
  {
    "Compound": "C[C@H]1CN(c2ccnc3c2cnn3C)Cc2ccc(N3C[C@H]4CCNC[C@H]4C3=O)cc21 (single isomer, unassigned) [Example 56]",
    "Metric name": "IC50",
    "Reading": 254
  },
  {
    "Compound": "C[C@H]1CN(c2ccnc3c2cnn3C)Cc2ccc(N3C4CCC3CNC4)cc21 [Example 27]",
    "Metric name": "IC50",
    "Reading": 185
  },
  {
    "Compound": "CO[C@@H]1CN(c2ccc3c(c2)[C@@H](C)CN(c2ccnc4c2cnn4C)C3)C[C@H]1N [Example 20]",
    "Metric name": "IC50",
    "Reading": 239
  },
  {
    "Compound": "C[C@H]1CN(c2ccnc3c2cnn3C)Cc2ccc(N3CCC(N4CC[C@@H](N)[C@H](O)C4)CC3)cc21 [Example 29]",
    "Metric name": "IC50",
    "Reading": 106
  },
  {
    "Compound": "Cc1cc(N2Cc3ccc(N4CC5(CNCCO5)C4)cc3[C@@H](C)C2)c2cnn(C)c2n1 [Example 48]",
    "Metric name": "IC50",
    "Reading": 229
  },
  {
    "Compound": "C[C@H]1CN(c2ccnc3c2cnn3C)Cc2ccc(N3C[C@H]4CNCCN4C3=O)cc21 [Example 24]",
    "Metric name": "IC50",
    "Reading": 311
  },
  {
    "Compound": "CO[C@@H]1CN(c2cc3c(cn2)CN(c2cc(C)nc4c2cnn4C)C[C@@H]3C)C[C@H]1N [Example 78]",
    "Metric name": "IC50",
    "Reading": 335
  },
  {
    "Compound": "Cc1cc(N2Cc3cnc(N4CC5(CNCCO5)C4)cc3[C@@H](C)C2)c2cnn(C)c2n1 [Example 79]",
    "Metric name": "IC50",
    "Reading": 131
  },
  {
    "Compound": "Cc1cc(N2Cc3cnc(O[C@@H]4C[C@H]5CNCCN5C4)cc3[C@@H](C)C2)c2cnn(C)c2n1 [Example 76]",
    "Metric name": "IC50",
    "Reading": 144
  }
]

1: CO[C@H]1CN(c2ccc3c(n2)[C@@H](C)CN(c2cc(C)nc4c2cnn4C)C3)CC[C@@H]1N [Example 65]
2: C[C@H]1CN(c2ccnc3c2cnn3C)Cc2ccc(OC[C@H]3CNCCN3C)cc21 [Example 43]
Compare IC50: is it lower for 1 or for 2 ? Provide the label of your selected option as the answer. 1
(1: 106 nM, 2: 242 nM)

* * *

Measured on: hERG channel (Homo sapiens, UniProt Q12809)
Construct: expressed in transfected cells; host or cells: CHO (CHOhERG)
Sequence (Q12809 whole entry): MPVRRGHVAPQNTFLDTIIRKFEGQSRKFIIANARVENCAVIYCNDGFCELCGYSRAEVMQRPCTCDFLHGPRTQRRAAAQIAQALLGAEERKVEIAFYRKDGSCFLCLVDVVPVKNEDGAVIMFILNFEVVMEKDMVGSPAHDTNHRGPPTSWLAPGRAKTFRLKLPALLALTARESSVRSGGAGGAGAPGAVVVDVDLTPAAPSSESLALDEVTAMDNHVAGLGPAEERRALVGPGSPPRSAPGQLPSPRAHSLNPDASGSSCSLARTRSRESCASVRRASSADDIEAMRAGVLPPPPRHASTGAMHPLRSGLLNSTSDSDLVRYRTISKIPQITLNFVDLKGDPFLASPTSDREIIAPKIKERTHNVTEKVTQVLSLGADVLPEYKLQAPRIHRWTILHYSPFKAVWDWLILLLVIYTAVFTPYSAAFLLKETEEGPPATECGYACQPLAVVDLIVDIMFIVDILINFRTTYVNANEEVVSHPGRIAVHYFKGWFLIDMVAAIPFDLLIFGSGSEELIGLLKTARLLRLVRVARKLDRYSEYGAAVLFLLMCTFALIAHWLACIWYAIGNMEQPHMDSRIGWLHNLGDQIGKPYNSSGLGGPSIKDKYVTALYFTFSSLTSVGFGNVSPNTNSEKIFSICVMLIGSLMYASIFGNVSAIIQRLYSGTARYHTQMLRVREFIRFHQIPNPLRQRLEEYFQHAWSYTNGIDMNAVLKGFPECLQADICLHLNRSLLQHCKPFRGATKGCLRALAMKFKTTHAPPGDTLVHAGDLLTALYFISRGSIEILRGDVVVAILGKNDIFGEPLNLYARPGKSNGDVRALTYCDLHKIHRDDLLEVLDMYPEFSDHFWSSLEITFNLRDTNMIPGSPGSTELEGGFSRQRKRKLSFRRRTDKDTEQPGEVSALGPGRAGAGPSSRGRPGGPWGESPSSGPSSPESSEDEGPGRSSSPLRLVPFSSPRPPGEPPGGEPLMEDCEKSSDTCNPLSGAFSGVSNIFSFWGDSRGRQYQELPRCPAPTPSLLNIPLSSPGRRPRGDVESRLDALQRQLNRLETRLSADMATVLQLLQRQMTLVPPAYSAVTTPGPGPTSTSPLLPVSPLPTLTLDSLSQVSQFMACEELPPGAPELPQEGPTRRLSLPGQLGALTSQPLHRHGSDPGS
Test method notes: hERG channel inhibition assay (patch-clamp, CHOhERG cells)
Format: cell-based
Assay context: safety ratio, hERG IC20 over HEK/hTLR9 IC50
Procedure: The hERG K^+ channels were cloned in humans and stably expressed in a CHO (Chinese hamster ovary) cell line. CHOhERG cells were used for patch-clamp (voltage-clamp, whole-cell) experiments. […] After the cells were stabilized for a few minutes, the amplitude and kinetics of IKhERG were recorded at a stimulation frequency of 0.1 Hz (6 bpm). […] The amplitude and kinetics of IKhERG are recorded in each concentration of the drug which were compared to the control values (taken as 100%). […]
Metric name: hERG IC20/TLR9 IC50

// returns hERG IC20/TLR9 IC50 for "C[C@H]1CN(c2ccnc3c2cnn3C)Cc2ccc(N3CC4(CNC4)CC3=O)cc21" with hERG channel (Homo sapiens, UniProt Q12809); value = >50.5

Log: hERG channel (Homo sapiens, UniProt Q12809), compound "C[C@H]1CN(c2ccnc3c2cnn3C)Cc2ccc(OC[C@H]3CNCCN3)cc21" , hERG IC20/TLR9 IC50 = >90.1

The compound "C[C@H]1CN(c2ccnc3c2cnn3C)Cc2ccc(OCCN3CCNCC3)cc21" , tested on hERG channel (Homo sapiens, UniProt Q12809), showed hERG IC20/TLR9 IC50 of >30.7

Entry "C[C@H]1CN(c2ccnc3c2cnn3C)Cc2ccc(N3CC4(CNCCO4)C3)cc21" , tested on hERG channel (Homo sapiens, UniProt Q12809), has a reported hERG IC20/TLR9 IC50 of >26.9

* * *

Measured on: human TLR8 (Homo sapiens, UniProt Q9NR97)
Test method notes: HEK293-Blue-hTLR-8 cells assay (SEAP reporter, R848 stimulation)
Assay context: HEK293-Blue-hTLR8 cells, R848, 20 hrs; read-out: HEK/hTLR8 IC50
pIC50: −log10 of the molar value.
Metric name: pIC50

Study these solved cases before continuing.
[
  {
    "Molecule": "Cc1cc(N2Cc3cnc(N4CC[C@@H](N)[C@H](F)C4)cc3[C@@H](C)C2)c2cnn(C)c2n1",
    "pIC50": 7.47
  },
  {
    "Molecule": "C[C@H]1CN(c2ccnc3c2cnn3C)Cc2ccc(OC3CN(C4CCNCC4)C3)cc21",
    "pIC50": 8.10
  },
  {
    "Molecule": "C[C@H]1CN(c2ccnc3c2cnn3C)Cc2ccc(N3CC4CNC[C@H]4C3=O)cc21 (relative stereo)",
    "pIC50": 7.96
  }
]

A: C[C@H]1CN(c2ccnc3c2cnn3C)Cc2ccc(N3CCN(c4cc5c(cn4)CCNC5)CC3)cc21
B: C[C@H]1CN(c2ccnc3c2cnn3C)Cc2ccc(N3CCN[C@@H](CO)C3)cc21
C: C[C@H]1CN(c2ccnc3c2cnn3C)Cc2ccc(N3CC4(CNC4)CC3=O)cc21
rank_up(items): orders items by reported pIC50 in ascending numerical order. Answer by naming the labels in the order asked. C, A, B
(C: 7.59, A: 7.96, B: 8.52)

A: C[C@H]1CN(c2ccnc3c2cnn3C)Cc2ccc(N3C[C@@H](N)[C@H](O)C3)cc21
B: C[C@H]1CN(c2ccnc3c2cnn3C)Cc2ccc(N3CCN(C(=O)C4CCNCC4)CC3)cc21
Which of the two gives a bigger number for pIC50: A or B ? Please indicate the selected item by its label. A

* * *

Measured on: TLR9 (Homo sapiens)
Test method notes: HEK293-Blue-hTLR-9 cells assay (SEAP reporter, ODN2006 stimulation)
Assay type: cell-based
Design: host or cells: HEK293 (HEK-Blue hTLR9)
Assay context: HEK293-Blue-hTLR9 cells, ODN2006, 20 hrs; read-out: HEK/hTLR9 IC50
Metric name: IC50 (nM)
Provide the reading as a plain figure in nM.

Guide cases for IC50, answers given:
[
  {
    "Compound": "C[C@H]1CN(c2ccnc3c2cnn3C)Cc2ccc(N3CC4(CCNC4)OC3=O)cc21 (stereo partly drawn) [Example 35]",
    "Unit annotation": "nM",
    "IC50": 182
  },
  {
    "Compound": "C[C@H]1CN(c2ccnc3c2cnn3C)Cc2ccc(OC[C@H]3CNCCN3)cc21 [Example 18]",
    "Unit annotation": "nM",
    "IC50": 111
  }
]

Per the records, this compound ( C[C@H]1CN(c2ccnc3c2cnn3C)Cc2ccc(N3CCNCC3)cc21 [Example 1] ) has IC50 equal to 198
